system: SK-MEL-28; test: NCI tumour cell line growth inhibition, 48 h
Active and inactive are the calls of the source. Rule as the data show it: active = GI50 up to about 1.1 µM and inactive = higher.
recorded metric: GI50

CN(C)C(=O)C(F)(F)C(c1ccccc1Br)C1C(=O)N(C)C(=O)N(C)C1=O (stereo unspecified) :: > 100 µM (inactive)
CC(C)(C)COS(=O)OCC(C)(C)C :: > 100 µM (inactive)
CO[C@H]1C[C@H](n2cc(C)c(=O)[nH]c2=O)O[C@@H]1CO :: > 100 µM (inactive)
COc1cc2c(cc1OC)C1=Cc3cc(OC)c(OC)cc3C(C)N1C=C2 (stereo unspecified) :: 63.2 µM (inactive)
COc1cc(C(C)=O)cc(C(=O)N(C(C)C)C(C)C)c1[Si](C)(C)C :: > 100 µM (inactive)
O=C(O)c1ccccc1SCc1cccc2c(=O)c3ccc(Cl)cc3oc12 :: > 50 µM (inactive)

Item: O=CC(O)C(O)C(O)COc1cc(CO)cc2c1C(=O)c1ccccc1C2=O (stereo unspecified) | GI50: > 100 µM (inactive)

Item: CCCCOC(=O)C(O)Cc1ccoc1 (stereo unspecified) | GI50: > 100 µM (inactive)

Item: Cc1cc2c(=O)cc(-c3ccc(C(F)(F)F)cc3)oc2c(C(=O)O)c1C | GI50: > 100 µM (inactive)

Item: Cc1ccc(S(=O)(=O)NC(=O)NCC(=O)NCC(=O)O)cc1 | GI50: > 100 µM (inactive)

Item: COC(=O)[C@H]1[C@H](C(=O)OC)[C@@H](C)c2c(ccc3c2[nH]c2ccccc23)[C@@H]1C | GI50: > 100 µM (inactive)

---

Measured GI50 of individual entries
system: MOLT-4; test: NCI tumour cell line growth inhibition, 48 h
Calls of active or inactive are those of the source. No stated cut-off is given here; in the data, active = GI50 up to about 1.1 µM and inactive = higher.

Some molecules with known GI50 results, for comparison:
CCOc1ccccc1NC(=O)CCc1n[nH]c(=S)o1 :: > 100 µM (inactive)
OC(c1ccc(F)cc1)(c1ccc(F)cc1)C1CC1 :: 21.5 µM (inactive)
O=C(O)/C=C/c1ccc(Oc2ccccc2C(=O)O)o1 :: > 10 µM (inactive)

# value of GI50, MOLT-4, item CC(c1ccccc1)N1CC(C)(c2ccccc2)N(O)C(c2ccccc2)C1C (stereo unspecified) = 3.47 µM (inactive)

# value of GI50, MOLT-4, item O=C1C=CC2(C=C1)O[C@H](CCc1ccccc1)[C@@H](CCc1ccccc1)O2 = 81.8 µM (inactive)

# value of GI50, MOLT-4, item CCC(=O)c1c(NOC2OCC(OC(C)=O)C(OC(C)=O)C2OC(C)=O)nc(OC)n(C)c1=O (stereo unspecified) = > 100 µM (inactive)

# value of GI50, MOLT-4, item CC(C)C(=O)N1C(=O)O[C@@H](c2ccccc2)[C@H]1C = > 100 µM (inactive)

# value of GI50, MOLT-4, item C[Si](C)(C)C#CCO[Si](C)(C)C = 22.3 µM (inactive)

---

Measured GI50 of individual entries
tested on: MOLT-4; assay: NCI tumour cell line growth inhibition, 48 h
Activity calls are given as the source filed them. Cut-off read from the data, not from the text of the source: active = GI50 up to about 1.1 µM and inactive = higher. Where a SMILES comes first, the peptide text is derived from it. The star is where a group is joined. Fmoc = O=C(OCC1c2ccccc2-c2ccccc21)*; OtBu = CC(C)(C)O*

CC(=O)/N=C1/N(/C=C2\C(=O)Oc3ccccc3C2=O)C(=O)/C(=C/c2cccc(Cl)c2Cl)N1C :: 20.7 µM (inactive)
NCCCCNC1(c2cc3ccccc3s2)CCCCC1 :: 2.07 µM (inactive)
CC(C)C(NC(=O)OCC1c2ccccc2-c2ccccc21)C(=O)NC(CCC(=O)OC(C)(C)C)C(=O)OC(C)(C)C (stereo not given) (Fmoc-Val-Glu(OtBu)-OtBu; configuration not given here) :: 4.21 µM (inactive)
CSC1=N/C(=C\c2ccco2)C(=O)N1CN1CCOCC1 :: 59.7 µM (inactive)
COC(=O)c1cccn1C(=O)n1cccc1 :: > 100 µM (inactive)
CSc1ncnc2c1cnn2Cc1cn(CCCCO)nn1 :: > 100 µM (inactive)

Item: CC1CC=CC(O)C1 (stereo not given) | GI50: > 100 µM (inactive)

Item: CC1CC(C)CC(C)C(O)/C(C#N)=C/C=C/CC(C2CCCC2C(=O)O)OC(=O)CC(O)C(C)C1 (stereo not given) | GI50: 0.022 µM (active)

Item: CC1(C)/C(=N\NC(N)=O)C2CCC1C2 (stereo not given) | GI50: > 100 µM (inactive)

Item: COCOCC1CCCN1CN1CCC[C@H]1COCOC (stereo not given in full) | GI50: 50.4 µM (inactive)

---

system: HL-60; assay: NCI tumour cell line growth inhibition, 48 h
Activity calls are given as the source filed them. No stated cut-off is given here; in the data, active = GI50 up to about 1.1 µM and inactive = higher.
Returns: one label drawn from active, inactive

Here are 4 molecules together with their reported answers.
CC(O)CCCCC(O)CCC[C@H](O)[C@H]1CCC([C@H]2CCC([C@@H](O)CCCCCCCCCCCCC3=C[C@H](C)OC3=O)O2)O1 (stereo partly specified) :: inactive
COc1cc([C@@H]2c3cc4c(cc3[C@@H](NC(=O)c3cccc([N+](=O)[O-])c3)C3COC(=O)[C@@H]32)OCO4)cc(OC)c1O (stereo partly specified) :: active
Nc1nc(F)nc2c1ncn2C1OC(COP(=O)(O)O)C(O)C1O (stereo unspecified) :: inactive
Cc1ccc(S(=O)(=O)N/N=C/c2oc(-c3ccccc3Cl)c(-c3ccccc3Cl)c2[N+](=O)[O-])cc1 :: inactive

Tell me the assay call for O=c1[nH]c2c(nc1NC13CC4CC(CC(C4)C1)C3)c(=O)oc1ccccc12 please.
inactive

Tell me the assay call for OC(c1ccc(F)cc1)(c1ccc(F)cc1)C1CC1 please.
inactive

Tell me the assay call for CC(c1ccccc1)N1CC(C)(c2ccccc2)N(O)C(c2ccccc2)C1C (stereo unspecified) please.
inactive

Tell me the assay call for COC(=O)C1CCC2(C)[C@H](CCC3O[C@]32C)[C@@]1(C)CC(=O)c1ccoc1 (stereo partly specified) please.
inactive

Tell me the assay call for O=C(ON=c1c2ccccc2ccc2ccccc12)c1ccccc1 please.
inactive

---

tested on: SN12C; test: NCI tumour cell line growth inhibition, 48 h
Activity calls are given as the source filed them. No stated cut-off is given here; in the data, active = GI50 up to about 1.1 µM and inactive = higher.
recorded metric: GI50

Some compounds with known GI50 results, for comparison:
C=C[C@@H](C)[C@H](NS(=O)(=O)c1ccc(C)cc1)C(=O)OCC :: > 100 µM (inactive)
C=CCOC(=O)CC[N+]1=CCC(c2ccccc2)(c2ccccc2)O1 :: > 100 µM (inactive)
CC(=O)NC(CS)C(=O)O (stereo unspecified) :: 26300 µM (inactive)
O=c1[nH]c2c(nc1NC13CC4CC(CC(C4)C1)C3)c(=O)oc1ccccc12 :: > 100 µM (inactive)
COc1ccc(CC2Cc3ccccc3CC(=O)N2)cc1OC (stereo unspecified) :: > 100 µM (inactive)
Clc1ccc(CCn2cncn2)c(Cl)c1 :: > 100 µM (inactive)
CC1(C)O[C@@H]2COC(=O)[C@@H]2O1 :: > 100 µM (inactive)
C=C1C(=O)O[C@H]2C1C[C@H](O)/C(C)=C/CC[C@@]1(C)O[C@H]21 (stereo partly specified) :: 18.2 µM (inactive)

Item: O=C1O[C@]2(c3ccccc3)C(c3ccccc3)=C[C@]2(C(=O)c2ccccc2)C1=O | GI50: 33.4 µM (inactive)

Item: N#CC(C(=O)CCC(=O)Nc1ccc(Cl)cc1)c1ccc(Cl)cc1 (stereo unspecified) | GI50: > 100 µM (inactive)

Item: CCOC(=O)C1(C(=O)OCC)C[C@@H](C)[C@@H](O)C1 | GI50: > 100 µM (inactive)

---

tested on: IGROV-1; assay: NCI tumour cell line growth inhibition, 48 h
Active and inactive are the calls of the source. Cut-off read from the data, not from the text of the source: active = GI50 up to about 1.1 µM and inactive = higher.
Measured GI50 of individual entries

COc1ccc(CNc2nc(NCc3ccc(OC)c(OC)c3)nc(NC3CCCCC3)n2)cc1 :: 4.49 µM (inactive)
COC(=O)C(=O)C(C(=O)C(=O)Nc1ccccc1C(=O)OC)c1nc2ccc(C(=O)c3ccccc3)cc2nc1O (stereo not drawn) :: 62.8 µM (inactive)
C[C@]12CC[C@@H]3c4cc(I)c(O)cc4CC[C@H]3[C@@H]1CC[C@@H]2O :: 5.93 µM (inactive)
CC1(c2cccc(C(F)(F)F)c2)CC(c2cccc(C(F)(F)F)c2)=C(C#N)C(=C(C#N)C#N)N1 (stereo not drawn) :: 16.6 µM (inactive)
COc1cc(/C=C(\C)[N+](=O)[O-])cc(OC)c1 :: 6.46 µM (inactive)
CCOC(=O)C1(C(=O)OCC)C[C@@H](C)[C@@H](O)C1 :: > 100 µM (inactive)
CCOC(=O)c1cccc(NC(=O)CBr)c1 :: 0.959 µM (active)

Read the next record carefully.
Item: CCOC(=O)N1CCC2C(=C(C)C(C)C3=C2C(=O)c2ccccc2C3=O)C1 (stereo not drawn) | GI50: > 10 µM (inactive)

Provenance of the data: ChEMBL document CHEMBL1201862
